Record form. Attribute: pest or weed control at 1000 g/ha. Fill in for each entry.
# Tested on: wild mustard (Brassica kaber), also known as Sinapis arvensis (SINAR)
# Experiment: post-emergent herbicidal test, wild mustard
# Type: in vivo
# Condition context: Brassica, post-emergence, post-emergent, 1.0 kg/ha (*), 17-21 days after application; read-out: SINAR percent control
The response must be a number in % with no trailing unit.

Task: Provide the documented pest or weed control at 1000 g/ha with wild mustard (Brassica kaber), also known as Sinapis arvensis (SINAR) as the system for CC1CCCC1NCC(P(=O)(O)O)P(=O)(O)O (stereo not shown) [Compound 50]
Output: 85

Task: How about this compound: CCCN(CCC(=O)O)CC(P(=O)(O)O)P(=O)(O)O [Compound 54]
Output: 10

Task: How about this compound: Cc1cn(CC(P(=O)(O)O)P(=O)(O)O)cn1 [Compound 58]
Output: 100

Task: How about this compound: CC(NCC(P(=O)(O)O)P(=O)(O)O)c1ccc(F)cc1 (stereo not shown) [Compound 44]
Output: 90

Task: How about this compound: O=P(O)(O)C(Cn1ccnc1)P(=O)(O)O [Compound 64]
Output: 100

Task: How about this compound: O=P(O)(O)C(CNC1CCc2ccccc21)P(=O)(O)O (stereo not shown) [Compound 49]
Output: 10

Task: How about this compound: C=C(C)CNCC(P(=O)(O)O)P(=O)(O)O [Compound 34]
Output: 100

Task: How about this compound: CC(C)N(C)CC(P(=O)(O)O)P(=O)(O)O [Compound 33]
Output: 100

Task: How about this compound: CC1CC(C)CN(CC(P(=O)(O)O)P(=O)(O)O)C1 (stereo not shown) [Compound 35]
Output: 25

Task: How about this compound: CCCCCCN(CCC)CC(P(=O)(O)O)P(=O)(O)O [Compound 59]
Output: 90
